target: FGFR3 (V555M) (Homo sapiens, UniProt P22607, V555M); construct: made in house; host or cells: E. coli (BL21-derived), T7 phage; assay: Kinase binding assay (kinase-tagged T7 phage, affinity beads, qPCR), Kd; conditions: V555M mutant; read-out: FGFR3 (V555M) (Kd nM)
Sequence (P22607 23-806 V555M): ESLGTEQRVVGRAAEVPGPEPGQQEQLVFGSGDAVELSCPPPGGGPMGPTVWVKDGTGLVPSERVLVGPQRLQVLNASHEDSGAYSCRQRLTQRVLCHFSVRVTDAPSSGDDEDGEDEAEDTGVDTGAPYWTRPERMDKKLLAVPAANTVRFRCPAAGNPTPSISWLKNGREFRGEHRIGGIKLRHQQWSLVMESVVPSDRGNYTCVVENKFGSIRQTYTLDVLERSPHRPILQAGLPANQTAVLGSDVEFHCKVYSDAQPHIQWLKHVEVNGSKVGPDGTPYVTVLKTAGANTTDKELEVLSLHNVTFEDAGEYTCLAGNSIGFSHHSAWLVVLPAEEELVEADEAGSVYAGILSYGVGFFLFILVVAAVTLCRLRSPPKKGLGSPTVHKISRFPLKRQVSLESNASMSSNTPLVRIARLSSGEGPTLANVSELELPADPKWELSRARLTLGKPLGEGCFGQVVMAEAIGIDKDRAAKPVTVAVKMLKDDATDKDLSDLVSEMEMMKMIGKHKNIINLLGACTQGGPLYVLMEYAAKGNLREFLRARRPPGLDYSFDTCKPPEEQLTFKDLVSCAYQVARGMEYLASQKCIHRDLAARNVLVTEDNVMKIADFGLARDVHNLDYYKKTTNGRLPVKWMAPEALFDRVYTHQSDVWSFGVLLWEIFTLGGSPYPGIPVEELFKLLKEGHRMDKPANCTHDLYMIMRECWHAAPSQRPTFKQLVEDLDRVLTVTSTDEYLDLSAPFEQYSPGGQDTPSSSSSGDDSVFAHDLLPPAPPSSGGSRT
Below, each entry is listed alongside its reported Kd.

C[C@@H](Oc1ccc2[nH]nc(-c3cnc(N4CC(C)(N5CC6CC(C5)O6)C4)c(F)c3)c2c1)c1c(Cl)cncc1Cl    1 to 50 nM
COc1cc2[nH]nc(-c3cnc(N4CC(C)(N5CCC5)C4)c(C#N)c3)c2cc1O[C@H](C)c1c(Cl)cncc1Cl    1 to 50 nM

Let's switch to this compound now.
Input: Consider the compound shown here: C[C@@H](Oc1ccc2[nH]nc(-c3cnc(N4CC(C)(NC5CS(=O)(=O)C5)C4)c(C#N)c3)c2c1)c1c(Cl)cncc1Cl What is its recorded Kd?
Output: 1 to 50 nM

Where these numbers come from: patent US20250368666A1
